test system: Plasmodium berghei; test: Screen against P. berghei liver stage (PbLuc), transformed with Luciferase, at 10uM; format: functional, HepG2; details: tested at 10 uM
In all, about 69,000 compounds went through this assay and about 8,600 (12%) showed an effect of 50% or more. The full list was thinned out, with strong results kept by preference.
property_measured: INHIBITION
Please give the number followed by its unit.

Use these answered entries as a reference point.
Cc1nccn1C1CCCN(C(=O)c2ccc3nncn3c2)C1 (configuration not stated) ... 40.2%
CN(CCN1CCCC1)c1nccc(N2CCN[C@H]3CS(=O)(=O)C[C@H]32)n1 ... 45.3%
Cc1nnc(NC(=O)CN2CCCC2c2c(C)nn(C)c2C)s1 (configuration not stated) ... -24.2%
Cc1cc(=O)n(C)cc1NC(=O)Cc1cc(F)ccc1F ... 56.5%
CC(O)c1cn(Cc2ccc(F)cc2)nn1 (configuration not stated) ... 23.6%

Sample COCCC1CCN([C@@H]2c3ccccc3C3(CCNCC3)[C@H]2O)CC1 — what was its INHIBITION?
11.6%

Same question, CC(C)c1cc(C2CCN(Cc3cc(F)cc(F)c3)CC2)[nH]n1 this time
49.5%

Same question, Cc1oc(-c2cccc(F)c2F)nc1CN(C)CCC(C)(C)O this time
16%

Same question, CCN(C)c1nccc(N2CCN[C@H]3CS(=O)(=O)C[C@H]32)n1 this time
40.9%

Same question, CC(C)Oc1cccc(CNC(Cc2ccsc2)c2nccs2)c1 (configuration not stated) this time
44.3%

Same question, CC(C)c1cc(C2CCN(C(=O)Cn3cncn3)CC2)[nH]n1 this time
17%

Same question, CC(C)Cn1cc2nc(N)[nH]cc-2c1=O this time
29.2%
